# ASSAYED TARGET: CDK2/A (Homo sapiens)
# Construct: purchased
# TEST PROTOCOL: Inhibitory activity to CDK2 (FRET)
# Type: biochemical
# TEST CONDITIONS: 1 × 10^−6 mol/L
MEASUREMENT TYPE: CDK2 inhibition % (1 × 10^−6 mol/L)

Solved entries:
{"SMILES": "Cc1cc2c(Nc3c[nH]nc3C(=O)Nc3ccc(CN4CCN(C)CC4)cc3)nccc2o1", "CDK2 inhibition % (1 × 10^−6 mol/L)": "73.23%"}
{"SMILES": "Cc1sc2ncnc(Nc3c[nH]nc3C(=O)Nc3ccc(CN4CCN(C)CC4)cc3)c2c1C", "CDK2 inhibition % (1 × 10^−6 mol/L)": "65.12%"}
{"SMILES": "Cc1sc2ncnc(Nc3c[nH]nc3C(=O)Nc3ccc(CN4CCOCC4)cc3)c2c1C", "CDK2 inhibition % (1 × 10^−6 mol/L)": "54.65%"}

Query compound follows.
For the compound "Cc1csc2ncnc(Nc3c[nH]nc3C(=O)Nc3ccc(CN4CCOCC4)cc3)c12" , what CDK2 inhibition % (1 × 10^−6 mol/L) is on record?
60.68%

----------
# ASSAYED TARGET: JNK1 (Homo sapiens, UniProt P45983)
# Sequence (P45983 26-321 limits assumed): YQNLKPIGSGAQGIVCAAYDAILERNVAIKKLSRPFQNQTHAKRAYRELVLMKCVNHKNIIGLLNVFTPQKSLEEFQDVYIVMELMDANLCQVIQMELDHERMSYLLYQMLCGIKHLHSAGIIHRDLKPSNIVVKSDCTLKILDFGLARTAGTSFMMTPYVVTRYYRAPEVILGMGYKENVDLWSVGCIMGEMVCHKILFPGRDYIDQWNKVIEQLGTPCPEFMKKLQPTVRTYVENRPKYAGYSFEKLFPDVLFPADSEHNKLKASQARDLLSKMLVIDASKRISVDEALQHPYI
# TEST PROTOCOL: Kinase IC50, 33P labeled isotope method
# Format: biochemical
MEASUREMENT TYPE: IC50 (nM)
Please respond with the number in nM and leave the unit unwritten.

For the compound CN1CCN(Cc2ccc(NC(=O)c3n[nH]cc3Nc3ncnc4[nH]ccc34)cc2)CC1 [Compound I-11] , what IC50 is on record?
1240

----------
# ASSAYED TARGET: CDK4/cyclin D1 (Homo sapiens, UniProt P11802)
# Sequence (P11802 6-295 limits assumed): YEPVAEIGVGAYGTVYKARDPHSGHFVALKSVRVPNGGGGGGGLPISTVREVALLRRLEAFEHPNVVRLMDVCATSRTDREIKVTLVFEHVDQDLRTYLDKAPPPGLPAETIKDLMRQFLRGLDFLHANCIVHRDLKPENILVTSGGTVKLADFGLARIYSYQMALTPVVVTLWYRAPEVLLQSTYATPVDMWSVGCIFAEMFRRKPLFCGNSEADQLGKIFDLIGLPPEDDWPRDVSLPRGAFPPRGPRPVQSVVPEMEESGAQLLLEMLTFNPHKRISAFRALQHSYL
# Sequence (P24385 whole entry partner): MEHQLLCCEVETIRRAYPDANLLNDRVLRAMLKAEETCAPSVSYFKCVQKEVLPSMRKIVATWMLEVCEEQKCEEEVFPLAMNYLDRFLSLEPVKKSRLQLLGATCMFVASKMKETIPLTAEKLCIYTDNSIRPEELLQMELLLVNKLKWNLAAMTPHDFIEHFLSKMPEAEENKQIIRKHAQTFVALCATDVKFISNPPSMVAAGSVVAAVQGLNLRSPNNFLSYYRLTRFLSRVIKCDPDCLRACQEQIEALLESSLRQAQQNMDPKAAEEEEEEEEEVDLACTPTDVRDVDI
# TEST PROTOCOL: Kinase IC50, 33P labeled isotope method
# Assay type: biochemical
# TEST CONDITIONS: 20 μM ATP; read-out: IC50* CDK4/cyclin D1
MEASUREMENT TYPE: IC50 (nM)
Please respond with the number in nM and leave the unit unwritten.

{"SMILES": "Cc1cc2c(Nc3c[nH]nc3C(=O)Nc3ccc(CN4CCN(C)CC4)cc3)ncnc2[nH]1", "IC50, nM": 8}
{"SMILES": "CN1CCN(Cc2ccc(NC(=O)c3n[nH]cc3Nc3ncnc4occc34)cc2)CC1", "IC50, nM": 7}
{"SMILES": "Cc1cc2c(Nc3c[nH]nc3C(=O)Nc3ccc(CN4CCN(C)CC4)cc3)nccc2s1", "IC50, nM": 7}

Query compound follows.
For the compound "Cc1cc2c(Nc3c[nH]nc3C(=O)Nc3ccc(CN4CCN(C)CC4)cc3)ncnc2s1" , what IC50 is on record?
6

----------
# ASSAYED TARGET: CDK1/cyclin E (Homo sapiens)
# Sequence (P06493 4-287 limits assumed): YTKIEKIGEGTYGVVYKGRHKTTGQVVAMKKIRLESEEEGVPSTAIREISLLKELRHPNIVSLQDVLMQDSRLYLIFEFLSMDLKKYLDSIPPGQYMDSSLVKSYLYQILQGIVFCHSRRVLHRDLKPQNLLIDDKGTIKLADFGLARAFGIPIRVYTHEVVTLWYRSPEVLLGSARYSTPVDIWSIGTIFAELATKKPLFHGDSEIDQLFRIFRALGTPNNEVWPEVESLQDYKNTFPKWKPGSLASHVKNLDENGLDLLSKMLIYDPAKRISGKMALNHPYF
# Sequence (P24864 whole entry partner): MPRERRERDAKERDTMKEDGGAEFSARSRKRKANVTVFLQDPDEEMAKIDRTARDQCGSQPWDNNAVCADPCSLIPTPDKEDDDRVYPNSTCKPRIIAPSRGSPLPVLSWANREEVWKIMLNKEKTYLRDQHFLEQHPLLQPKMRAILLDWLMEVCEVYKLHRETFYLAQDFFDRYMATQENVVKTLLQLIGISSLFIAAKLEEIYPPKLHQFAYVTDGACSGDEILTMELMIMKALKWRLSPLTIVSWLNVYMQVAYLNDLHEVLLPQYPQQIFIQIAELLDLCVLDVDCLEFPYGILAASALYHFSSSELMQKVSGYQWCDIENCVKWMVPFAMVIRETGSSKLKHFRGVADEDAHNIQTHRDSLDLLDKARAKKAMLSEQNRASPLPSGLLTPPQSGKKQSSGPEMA
# TEST PROTOCOL: Kinase IC50, 33P labeled isotope method
# Assay type: biochemical
# TEST CONDITIONS: 20 μM ATP; read-out: IC50* CDK1/cyclin E
So basically: is IC50 under 0.1 µM? Then TRUE. Not under? Then FALSE.

# check: IC50 < 0.1 µM for Cc1cc2c(Nc3c[nH]nc3C(=O)Nc3ccc(CN4CCN(C)CC4)cc3)ncnc2[nH]1 [Compound I-13]
TRUE

# check: IC50 < 0.1 µM for CN1CCN(Cc2ccc(NC(=O)c3n[nH]cc3Nc3ncnc4sccc34)cc2)CC1 [Compound I-1]
TRUE

# check: IC50 < 0.1 µM for Cc1cc2c(Nc3c[nH]nc3C(=O)Nc3ccc(CN4CCN(C)CC4)cc3)ncnc2s1 [Compound I-3]
TRUE

# check: IC50 < 0.1 µM for CN1CCN(Cc2ccc(NC(=O)c3n[nH]cc3Nc3ncnc4occc34)cc2)CC1 [Compound I-21]
FALSE
